Details: in ethyl acetate, 322.35 K
endpoint_label: solubility (mole fraction)
One number for each entry.

Q: Please report the recorded solubility (mole fraction) for O=C(O)c1ccco1 .
Result: 0.216

###

Settings: in ethyl acetate, 281.35 K
endpoint_label: solubility (mole fraction)
Numbers only.

Q: Please report the recorded solubility (mole fraction) for O=C(O)c1ccco1 .
Result: 0.0858

###

Settings: in ethyl acetate, 307.45 K
endpoint_label: solubility (mole fraction)
Answers are plain numbers.

Q: Please report the recorded solubility (mole fraction) for O=C(O)c1ccco1 .
Result: 0.157

###

Conditions: in n-propanol, 303.15 K
endpoint_label: solubility (mole fraction)
Answers are plain numbers.

Q: Please report the recorded solubility (mole fraction) for O=C(O)c1ccco1 .
Result: 0.208

###

Details: in acetone, 283.25 K
endpoint_label: solubility (mole fraction)
Numbers only.

Q: Please report the recorded solubility (mole fraction) for O=C(O)c1ccco1 .
Result: 0.159

###

Conditions: in ethanol, 294.55 K
endpoint_label: solubility (mole fraction)
Answers are plain numbers.

Q: Please report the recorded solubility (mole fraction) for O=C(O)c1ccco1 .
Result: 0.198

###

Conditions: in methyl acetate, 298.75 K
endpoint_label: solubility (mole fraction)
Numbers only.

Q: Please report the recorded solubility (mole fraction) for O=C(O)c1ccco1 .
Result: 0.156

###

Conditions: in water, 284.85 K
endpoint_label: solubility (mole fraction)
Numbers only.

Q: Please report the recorded solubility (mole fraction) for O=C(O)c1ccco1 .
Result: 0.0032

###

Conditions: in water, 295.25 K
endpoint_label: solubility (mole fraction)
One number for each entry.

Q: Please report the recorded solubility (mole fraction) for O=C(O)c1ccco1 .
Result: 0.0064

###

Conditions: in ethyl acetate, 291.95 K
endpoint_label: solubility (mole fraction)
Answers are plain numbers.

Q: Please report the recorded solubility (mole fraction) for O=C(O)c1ccco1 .
Result: 0.11

###

Details: in water, 304.65 K
endpoint_label: solubility (mole fraction)
Numbers only.

Q: Please report the recorded solubility (mole fraction) for O=C(O)c1ccco1 .
Result: 0.0095

###

Settings: in ethyl acetate, 296.55 K
endpoint_label: solubility (mole fraction)
Give bare numbers.

Q: Please report the recorded solubility (mole fraction) for O=C(O)c1ccco1 .
Result: 0.124

###

Details: in ethyl acetate, 305.15 K
endpoint_label: solubility (mole fraction)

Q: Please report the recorded solubility (mole fraction) for O=C(O)c1ccco1 .
Result: 0.147

###

Conditions: in acetone, 302.95 K
endpoint_label: solubility (mole fraction)
Numbers only.

Q: Please report the recorded solubility (mole fraction) for O=C(O)c1ccco1 .
Result: 0.218

###

Settings: in acetone, 315.75 K
endpoint_label: solubility (mole fraction)
Numbers only.

Q: Please report the recorded solubility (mole fraction) for O=C(O)c1ccco1 .
Result: 0.265

###

Details: in water, 324.75 K
endpoint_label: solubility (mole fraction)

Q: Please report the recorded solubility (mole fraction) for O=C(O)c1ccco1 .
Result: 0.0342

###

Conditions: in ethanol, 325.75 K
endpoint_label: solubility (mole fraction)
One number for each entry.

Q: Please report the recorded solubility (mole fraction) for O=C(O)c1ccco1 .
Result: 0.311

###

Details: in n-propanol, 282.95 K
endpoint_label: solubility (mole fraction)
Answers are plain numbers.

Q: Please report the recorded solubility (mole fraction) for O=C(O)c1ccco1 .
Result: 0.138

###

Details: in methyl acetate, 302.35 K
endpoint_label: solubility (mole fraction)

Q: Please report the recorded solubility (mole fraction) for O=C(O)c1ccco1 .
Result: 0.166

###

Conditions: in ethyl acetate, 312.15 K
endpoint_label: solubility (mole fraction)
Answers are plain numbers.

Q: Please report the recorded solubility (mole fraction) for O=C(O)c1ccco1 .
Result: 0.171

###

Conditions: in n-propanol, 307.65 K
endpoint_label: solubility (mole fraction)

Q: Please report the recorded solubility (mole fraction) for O=C(O)c1ccco1 .
Result: 0.226

###

Details: in n-propanol, 326.15 K
endpoint_label: solubility (mole fraction)
Give bare numbers.

Q: Please report the recorded solubility (mole fraction) for O=C(O)c1ccco1 .
Result: 0.3

###

Settings: in water, 310.65 K
endpoint_label: solubility (mole fraction)

Q: Please report the recorded solubility (mole fraction) for O=C(O)c1ccco1 .
Result: 0.0127

###

Conditions: in water, 316.85 K
endpoint_label: solubility (mole fraction)
Numbers only.

Q: Please report the recorded solubility (mole fraction) for O=C(O)c1ccco1 .
Result: 0.0184

###

Settings: in n-propanol, 319.75 K
endpoint_label: solubility (mole fraction)
Numbers only.

Q: Please report the recorded solubility (mole fraction) for O=C(O)c1ccco1 .
Result: 0.273

###

Settings: in acetone, 288.55 K
endpoint_label: solubility (mole fraction)
Answers are plain numbers.

Q: Please report the recorded solubility (mole fraction) for O=C(O)c1ccco1 .
Result: 0.172

###

Conditions: in acetone, 293.25 K
endpoint_label: solubility (mole fraction)
One number for each entry.

Q: Please report the recorded solubility (mole fraction) for O=C(O)c1ccco1 .
Result: 0.189

###

Conditions: in methyl acetate, 291.65 K
endpoint_label: solubility (mole fraction)
Answers are plain numbers.

Q: Please report the recorded solubility (mole fraction) for O=C(O)c1ccco1 .
Result: 0.137

###

Conditions: in ethyl acetate, 287.05 K
endpoint_label: solubility (mole fraction)
One number for each entry.

Q: Please report the recorded solubility (mole fraction) for O=C(O)c1ccco1 .
Result: 0.0983

###

Settings: in ethanol, 287.35 K
endpoint_label: solubility (mole fraction)
One number for each entry.

Q: Please report the recorded solubility (mole fraction) for O=C(O)c1ccco1 .
Result: 0.176

###

Details: in methyl acetate, 284.15 K
endpoint_label: solubility (mole fraction)
One number for each entry.

Q: Please report the recorded solubility (mole fraction) for O=C(O)c1ccco1 .
Result: 0.117

###

Details: in n-propanol, 288.35 K
endpoint_label: solubility (mole fraction)
Numbers only.

Q: Please report the recorded solubility (mole fraction) for O=C(O)c1ccco1 .
Result: 0.158

###

Conditions: in methyl acetate, 280.85 K
endpoint_label: solubility (mole fraction)
Answers are plain numbers.

Q: Please report the recorded solubility (mole fraction) for O=C(O)c1ccco1 .
Result: 0.106

###

Conditions: in acetone, 299.15 K
endpoint_label: solubility (mole fraction)
One number for each entry.

Q: Please report the recorded solubility (mole fraction) for O=C(O)c1ccco1 .
Result: 0.206

###

Conditions: in ethanol, 310.15 K
endpoint_label: solubility (mole fraction)
Answers are plain numbers.

Q: Please report the recorded solubility (mole fraction) for O=C(O)c1ccco1 .
Result: 0.25

###

Settings: in ethanol, 313.75 K
endpoint_label: solubility (mole fraction)

Q: Please report the recorded solubility (mole fraction) for O=C(O)c1ccco1 .
Result: 0.268

###

Conditions: in ethanol, 303.05 K
endpoint_label: solubility (mole fraction)
Numbers only.

Q: Please report the recorded solubility (mole fraction) for O=C(O)c1ccco1 .
Result: 0.225
